# System: ATP;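 also: ATP exposure 15 min at 22 °C before imaging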
# TEST_PROTOCOL: switch fluorescence ratio, 500 uM ATP over buffer (Cy3 cluster intensity, sum of 5 cycles each) (fold (ratio)); higher = stronger signal-on switching upon ATP binding; sequences stand for … in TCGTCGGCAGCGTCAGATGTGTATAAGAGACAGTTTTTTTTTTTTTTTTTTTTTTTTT…TC
# RUN_PARAMETERS: aptamer strand: ATP DNA aptamer (quencher-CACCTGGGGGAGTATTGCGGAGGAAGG + anchor), 100 nM annealed; ATP concentration: 500 uM
RECORDED_ENDPOINT: switch fluorescence ratio

Examples with their reported switch fluorescence ratio follow.
## Task Give the measured switch fluorescence ratio for `GTATGCTTGG`
## Result 0.996

## Task Give the measured switch fluorescence ratio for `GATGATTATT`
## Result 0.986

## Task Give the measured switch fluorescence ratio for `GACTCTGAGT`
## Result 1.01

## Task Give the measured switch fluorescence ratio for `TCATGGTGTC`
## Result 1.01

## Task Give the measured switch fluorescence ratio for `TTTGGTTGAT`
## Result 0.997

## Task Give the measured switch fluorescence ratio for `GCAAGGAGGG`
## Result 1.05

New cases:
## Task Give the measured switch fluorescence ratio for `GGCTTTACTA`
## Result 1

## Task Give the measured switch fluorescence ratio for `TCAAGGGGTG`
## Result 1.03

## Task Give the measured switch fluorescence ratio for `TTATTAAACG`
## Result 1.01

## Task Give the measured switch fluorescence ratio for `CCGGGGGGCC`
## Result 1.08

## Task Give the measured switch fluorescence ratio for `ATGAGAAGTG`
## Result 0.969

## Task Give the measured switch fluorescence ratio for `GGATTACCCA`
## Result 1.04

## Task Give the measured switch fluorescence ratio for `GACTGATTGG`
## Result 1.02

## Task Give the measured switch fluorescence ratio for `CAATAGCGGT`
## Result 1.05

----------
Catalogue of switch fluorescence ratio values
# Tested on: ATP;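 also: ATP exposure 15 min at 22 °C before imaging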
# TEST_PROTOCOL: switch fluorescence ratio, 500 uM ATP over buffer (Cy3 cluster intensity, sum of 5 cycles each) (fold (ratio)); higher = stronger signal-on switching upon ATP binding; sequences stand for … in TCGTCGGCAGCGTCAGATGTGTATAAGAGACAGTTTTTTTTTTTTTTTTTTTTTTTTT…TC
# RUN_PARAMETERS: aptamer strand: ATP DNA aptamer (quencher-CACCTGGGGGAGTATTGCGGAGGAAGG + anchor), 100 nM annealed; ATP concentration: 500 uM
Form rule: numeric answer, no unit written next to it.

Examples with their reported switch fluorescence ratio follow.
## Task Give the measured switch fluorescence ratio for `GACGGTTGTG`
## Result 1

## Task Give the measured switch fluorescence ratio for `GGAATCGGCG`
## Result 0.988

New cases:
## Task Give the measured switch fluorescence ratio for `TCTTAGCATA`
## Result 1.18

## Task Give the measured switch fluorescence ratio for `GGAAACGGGT`
## Result 1.02

----------
Catalogue of switch fluorescence ratio values
# System: ATP;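 also: ATP exposure 15 min at 22 °C before imaging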
# TEST_PROTOCOL: switch fluorescence ratio, 500 uM ATP over buffer (Cy3 cluster intensity, sum of 5 cycles each) (fold (ratio)); higher = stronger signal-on switching upon ATP binding; sequences stand for … in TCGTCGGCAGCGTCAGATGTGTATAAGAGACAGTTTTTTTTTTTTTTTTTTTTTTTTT…TC
# RUN_PARAMETERS: aptamer strand: ATP DNA aptamer (quencher-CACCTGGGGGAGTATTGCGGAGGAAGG + anchor), 100 nM annealed; ATP concentration: 500 uM
Form rule: numeric answer, no unit written next to it.

## Task Give the measured switch fluorescence ratio for `AACCGTATGG`
## Result 1
